# Target Of Assay: T1, Mouse BCMA-Fc (mouse, UniProt O88472 1-49, limits assumed)
# T1 construct: also called BCMA from mouse (mobile phase); not shown: Fc part
# T1 sequence (O88472 1-49 limits assumed): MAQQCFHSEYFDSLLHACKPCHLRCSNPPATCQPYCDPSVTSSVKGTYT
# Assay Comment: BLI (ForteBio Octet), IgG captured on AHC probe, antigen in solution, avid
Quantity Name: pKd
Note: pKd values are expressed as the negative base-10 logarithm of concentration in M.

May I ask what pKd has been recorded for antibody ADI-38497 (antibody, V domains shown) VH: QLQLQESGPGLVKPSETLSLTCTVSGGSIVSSSYYWTWIRQPPGKGLEWIGSISIAGSTYYNPSLKSRVTISVDTSKNQFSLKLSSVTAADTAVYYCARDRGDQILDVWSQGTMVTVSS VL: DIQMTQSPSSLSASVGDRVTITCRASQSISRYLNWYQQKPGKAPKLLIYAASSLQSGVPSRFSGSGSGTDFTLTISSLQPEDFATYYCQQKYFDITFGGGTKVEIK ?
9.30
